A collection of sequences and their measured protein stability index
test system: Saccharomyces cerevisiae; test: protein stability index of tFT-peptide fusion (C-terminal peptide) (PSI (0-1 scale)); higher = more stable (slower turnover); details: genetic background: wild type; temperature: 30 C;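 further: PSI is a weighted mean of sequencing reads over stability bins, variants kept only with over 10 reads, mCherry proximal and sfGFP distal, peptide attached via GGGS linker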
VALUE TYPE: protein stability index

{"SEQ STRING": "SRPATGSVTFPP", "VALUE TYPE": "protein stability index", "OBSERVED VALUE": 0.694}
{"SEQ STRING": "ANSRVVSFRLSG", "VALUE TYPE": "protein stability index", "OBSERVED VALUE": 0.693}
{"SEQ STRING": "PWGSPLMACRSC", "VALUE TYPE": "protein stability index", "OBSERVED VALUE": 0.694}
{"SEQ STRING": "VDCYIFPGIGAL", "VALUE TYPE": "protein stability index", "OBSERVED VALUE": 0.701}
{"SEQ STRING": "PWEVEAKNGRDR", "VALUE TYPE": "protein stability index", "OBSERVED VALUE": 0.717}
{"SEQ STRING": "WGRNRGASDPNL", "VALUE TYPE": "protein stability index", "OBSERVED VALUE": 0.72}
{"SEQ STRING": "GGVGWGMVEGWR", "VALUE TYPE": "protein stability index", "OBSERVED VALUE": 0.685}
{"SEQ STRING": "GYCGRGCWGVGC", "VALUE TYPE": "protein stability index", "OBSERVED VALUE": 0.709}
{"SEQ STRING": "AGAWVREVVGWG", "VALUE TYPE": "protein stability index", "OBSERVED VALUE": 0.707}
{"SEQ STRING": "VSGGRQVGGGGW", "VALUE TYPE": "protein stability index", "OBSERVED VALUE": 0.72}
{"SEQ STRING": "HRPPSVNRVSLM", "VALUE TYPE": "protein stability index", "OBSERVED VALUE": 0.692}
{"SEQ STRING": "VERIALIPASRQ", "VALUE TYPE": "protein stability index", "OBSERVED VALUE": 0.706}
{"SEQ STRING": "PPPIYTPPPPPL", "VALUE TYPE": "protein stability index", "OBSERVED VALUE": 0.697}
{"SEQ STRING": "GQPGDCWRVCPR", "VALUE TYPE": "protein stability index", "OBSERVED VALUE": 0.685}

----------
test system: Saccharomyces cerevisiae; experiment: protein stability index of tFT-peptide fusion (C-terminal peptide) (PSI (0-1 scale)); higher = more stable (slower turnover); settings: genetic background: das1 deletion; temperature: 37 C

{"SEQ STRING": "MSVLAFVCCLSG", "TARGET OF ASSAY": "Saccharomyces cerevisiae", "protein stability index": 0.393}
{"SEQ STRING": "LLSLPTTNLMAF", "TARGET OF ASSAY": "Saccharomyces cerevisiae", "protein stability index": 0.615}
{"SEQ STRING": "GGSIKRFVILVL", "TARGET OF ASSAY": "Saccharomyces cerevisiae", "protein stability index": 0.525}
{"SEQ STRING": "GFFCVWSLLFFN", "TARGET OF ASSAY": "Saccharomyces cerevisiae", "protein stability index": 0.449}
{"SEQ STRING": "WGGIASLVASAA", "TARGET OF ASSAY": "Saccharomyces cerevisiae", "protein stability index": 0.411}
{"SEQ STRING": "GGIRLRVRFFVI", "TARGET OF ASSAY": "Saccharomyces cerevisiae", "protein stability index": 0.615}
{"SEQ STRING": "TRVVSPNVILMC", "TARGET OF ASSAY": "Saccharomyces cerevisiae", "protein stability index": 0.725}
{"SEQ STRING": "NHKTIRIQNKSI", "TARGET OF ASSAY": "Saccharomyces cerevisiae", "protein stability index": 0.699}
{"SEQ STRING": "LLGGRVLWAWRV", "TARGET OF ASSAY": "Saccharomyces cerevisiae", "protein stability index": 0.737}
{"SEQ STRING": "AGMLMCLYLFFV", "TARGET OF ASSAY": "Saccharomyces cerevisiae", "protein stability index": 0.598}
{"SEQ STRING": "GYACSIFYLRCV", "TARGET OF ASSAY": "Saccharomyces cerevisiae", "protein stability index": 0.627}
{"SEQ STRING": "LFVVHCFLSVSS", "TARGET OF ASSAY": "Saccharomyces cerevisiae", "protein stability index": 0.165}
{"SEQ STRING": "VKGYISLLLVLI", "TARGET OF ASSAY": "Saccharomyces cerevisiae", "protein stability index": 0.419}
{"SEQ STRING": "SPTQIPLWILAS", "TARGET OF ASSAY": "Saccharomyces cerevisiae", "protein stability index": 0.454}
{"SEQ STRING": "WFFRLFFLFFSG", "TARGET OF ASSAY": "Saccharomyces cerevisiae", "protein stability index": 0.502}
{"SEQ STRING": "AGGVNWWSSWRV", "TARGET OF ASSAY": "Saccharomyces cerevisiae", "protein stability index": 0.775}
{"SEQ STRING": "CPVSRHLLVLYW", "TARGET OF ASSAY": "Saccharomyces cerevisiae", "protein stability index": 0.493}
{"SEQ STRING": "NLSYFFFSVLFF", "TARGET OF ASSAY": "Saccharomyces cerevisiae", "protein stability index": 0.693}
{"SEQ STRING": "LFWFRGTIVTPR", "TARGET OF ASSAY": "Saccharomyces cerevisiae", "protein stability index": 0.737}
{"SEQ STRING": "FSYLSFLPSLAA", "TARGET OF ASSAY": "Saccharomyces cerevisiae", "protein stability index": 0.599}
{"SEQ STRING": "SYVFEFIVSVVF", "TARGET OF ASSAY": "Saccharomyces cerevisiae", "protein stability index": 0.373}
{"SEQ STRING": "FIMHRIFMALVI", "TARGET OF ASSAY": "Saccharomyces cerevisiae", "protein stability index": 0.479}
{"SEQ STRING": "TVERKMYWQRWG", "TARGET OF ASSAY": "Saccharomyces cerevisiae", "protein stability index": 0.754}
{"SEQ STRING": "MACLRLTVYVMG", "TARGET OF ASSAY": "Saccharomyces cerevisiae", "protein stability index": 0.219}
{"SEQ STRING": "LDTTSRSRAKIS", "TARGET OF ASSAY": "Saccharomyces cerevisiae", "protein stability index": 0.718}
{"SEQ STRING": "LIFRLCVCGVFW", "TARGET OF ASSAY": "Saccharomyces cerevisiae", "protein stability index": 0.522}
{"SEQ STRING": "SCFRFFFLFLFF", "TARGET OF ASSAY": "Saccharomyces cerevisiae", "protein stability index": 0.361}
{"SEQ STRING": "YLGSLQVPVHLF", "TARGET OF ASSAY": "Saccharomyces cerevisiae", "protein stability index": 0.756}
{"SEQ STRING": "GLVCPWLIVRFV", "TARGET OF ASSAY": "Saccharomyces cerevisiae", "protein stability index": 0.5}
{"SEQ STRING": "LLVIAIKVPANS", "TARGET OF ASSAY": "Saccharomyces cerevisiae", "protein stability index": 0.507}
{"SEQ STRING": "LLYHFCLFFFRE", "TARGET OF ASSAY": "Saccharomyces cerevisiae", "protein stability index": 0.619}
{"SEQ STRING": "EYGLLLTLLAYY", "TARGET OF ASSAY": "Saccharomyces cerevisiae", "protein stability index": 0.549}
{"SEQ STRING": "RPAVVPPPFAPL", "TARGET OF ASSAY": "Saccharomyces cerevisiae", "protein stability index": 0.717}
{"SEQ STRING": "FWFLWAKMLLSC", "TARGET OF ASSAY": "Saccharomyces cerevisiae", "protein stability index": 0.377}
{"SEQ STRING": "LGCFGSSFVFCC", "TARGET OF ASSAY": "Saccharomyces cerevisiae", "protein stability index": 0.685}
{"SEQ STRING": "SPIGIFCFILCR", "TARGET OF ASSAY": "Saccharomyces cerevisiae", "protein stability index": 0.211}
{"SEQ STRING": "CWSSVGLSVCGC", "TARGET OF ASSAY": "Saccharomyces cerevisiae", "protein stability index": 0.719}
{"SEQ STRING": "VGLWCWSFVLVW", "TARGET OF ASSAY": "Saccharomyces cerevisiae", "protein stability index": 0.189}
{"SEQ STRING": "NLDRYYKKIKLI", "TARGET OF ASSAY": "Saccharomyces cerevisiae", "protein stability index": 0.733}
{"SEQ STRING": "SFLLVWCLLPEI", "TARGET OF ASSAY": "Saccharomyces cerevisiae", "protein stability index": 0.473}
{"SEQ STRING": "RVTYWKAVLVRL", "TARGET OF ASSAY": "Saccharomyces cerevisiae", "protein stability index": 0.6}
{"SEQ STRING": "GFAFFIGLSFAF", "TARGET OF ASSAY": "Saccharomyces cerevisiae", "protein stability index": 0.579}
{"SEQ STRING": "SSAPPTLHTRPS", "TARGET OF ASSAY": "Saccharomyces cerevisiae", "protein stability index": 0.686}
{"SEQ STRING": "VFSGGGFFLKVV", "TARGET OF ASSAY": "Saccharomyces cerevisiae", "protein stability index": 0.755}
{"SEQ STRING": "FVSVWVFLVSSF", "TARGET OF ASSAY": "Saccharomyces cerevisiae", "protein stability index": 0.457}
{"SEQ STRING": "WWDCAVWVRCGG", "TARGET OF ASSAY": "Saccharomyces cerevisiae", "protein stability index": 0.538}
{"SEQ STRING": "VFVLFLRAVACR", "TARGET OF ASSAY": "Saccharomyces cerevisiae", "protein stability index": 0.0423}
{"SEQ STRING": "LLFLVCFFPSIS", "TARGET OF ASSAY": "Saccharomyces cerevisiae", "protein stability index": 0.549}
{"SEQ STRING": "TPRQYVVSLSLC", "TARGET OF ASSAY": "Saccharomyces cerevisiae", "protein stability index": 0.703}
{"SEQ STRING": "CSFCSGMILLLS", "TARGET OF ASSAY": "Saccharomyces cerevisiae", "protein stability index": 0.583}
{"SEQ STRING": "EWAILSLGVMCV", "TARGET OF ASSAY": "Saccharomyces cerevisiae", "protein stability index": 0.2}
{"SEQ STRING": "AIMFLVLGYVFF", "TARGET OF ASSAY": "Saccharomyces cerevisiae", "protein stability index": 0.462}
{"SEQ STRING": "RLIARFKILRCI", "TARGET OF ASSAY": "Saccharomyces cerevisiae", "protein stability index": 0.635}
{"SEQ STRING": "CFATTCLRCKWV", "TARGET OF ASSAY": "Saccharomyces cerevisiae", "protein stability index": 0.739}
{"SEQ STRING": "FFLFLFFFLRGS", "TARGET OF ASSAY": "Saccharomyces cerevisiae", "protein stability index": 0.533}
{"SEQ STRING": "HLYPFPSLHFAF", "TARGET OF ASSAY": "Saccharomyces cerevisiae", "protein stability index": 0.778}
{"SEQ STRING": "LWGVGFLFVLVG", "TARGET OF ASSAY": "Saccharomyces cerevisiae", "protein stability index": 0.403}
{"SEQ STRING": "ILCVEFFVSVSV", "TARGET OF ASSAY": "Saccharomyces cerevisiae", "protein stability index": 0.277}
{"SEQ STRING": "RRIKIRKQEYIS", "TARGET OF ASSAY": "Saccharomyces cerevisiae", "protein stability index": 0.719}
{"SEQ STRING": "IERGLMLTLCVH", "TARGET OF ASSAY": "Saccharomyces cerevisiae", "protein stability index": 0.205}
{"SEQ STRING": "VGVCGSSGRVGG", "TARGET OF ASSAY": "Saccharomyces cerevisiae", "protein stability index": 0.718}
{"SEQ STRING": "LCFTSVFTLFIC", "TARGET OF ASSAY": "Saccharomyces cerevisiae", "protein stability index": 0.511}
{"SEQ STRING": "LFVMVSVSGLVV", "TARGET OF ASSAY": "Saccharomyces cerevisiae", "protein stability index": 0.255}
{"SEQ STRING": "LFSPLKGILSVM", "TARGET OF ASSAY": "Saccharomyces cerevisiae", "protein stability index": 0.691}
{"SEQ STRING": "VVCLLGIFYGFC", "TARGET OF ASSAY": "Saccharomyces cerevisiae", "protein stability index": 0.514}
{"SEQ STRING": "FQWILYIAKRVV", "TARGET OF ASSAY": "Saccharomyces cerevisiae", "protein stability index": 0.603}
{"SEQ STRING": "ACVWVVALVWVF", "TARGET OF ASSAY": "Saccharomyces cerevisiae", "protein stability index": 0.303}
{"SEQ STRING": "VFGFSLLTLLVL", "TARGET OF ASSAY": "Saccharomyces cerevisiae", "protein stability index": 0.506}
{"SEQ STRING": "FFSFLFLLLFGA", "TARGET OF ASSAY": "Saccharomyces cerevisiae", "protein stability index": 0.619}
{"SEQ STRING": "SIVDLFRLRSLS", "TARGET OF ASSAY": "Saccharomyces cerevisiae", "protein stability index": 0.73}
{"SEQ STRING": "GGGAGVVWVRLG", "TARGET OF ASSAY": "Saccharomyces cerevisiae", "protein stability index": 0.741}
{"SEQ STRING": "LTACRYVCFLLF", "TARGET OF ASSAY": "Saccharomyces cerevisiae", "protein stability index": 0.676}
{"SEQ STRING": "TVIVCCHLEVVY", "TARGET OF ASSAY": "Saccharomyces cerevisiae", "protein stability index": 0.0693}
{"SEQ STRING": "RYCVVDISAFCD", "TARGET OF ASSAY": "Saccharomyces cerevisiae", "protein stability index": 0.595}

The origin of these recorded values is the supplement of paper PMC10724198.
